target: Interleukin-23 receptor (Homo sapiens)
Sequence (Q5VWK5 whole entry): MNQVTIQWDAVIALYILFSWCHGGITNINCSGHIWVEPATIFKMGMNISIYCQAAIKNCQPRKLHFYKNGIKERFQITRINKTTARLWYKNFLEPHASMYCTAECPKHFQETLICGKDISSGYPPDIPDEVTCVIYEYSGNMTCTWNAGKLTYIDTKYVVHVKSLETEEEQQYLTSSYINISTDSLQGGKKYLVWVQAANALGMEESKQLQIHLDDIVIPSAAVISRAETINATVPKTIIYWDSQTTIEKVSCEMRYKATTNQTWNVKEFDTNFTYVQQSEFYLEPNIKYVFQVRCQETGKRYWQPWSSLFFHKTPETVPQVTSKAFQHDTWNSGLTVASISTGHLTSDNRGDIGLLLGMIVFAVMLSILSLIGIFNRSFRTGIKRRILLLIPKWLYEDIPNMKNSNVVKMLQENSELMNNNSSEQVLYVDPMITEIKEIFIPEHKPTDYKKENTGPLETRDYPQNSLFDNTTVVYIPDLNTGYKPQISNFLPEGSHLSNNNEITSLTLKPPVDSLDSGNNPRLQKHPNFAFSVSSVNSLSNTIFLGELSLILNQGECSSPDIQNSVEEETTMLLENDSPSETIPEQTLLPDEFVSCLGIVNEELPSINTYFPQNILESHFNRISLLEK
assay-info: Inhibition of interleukin-23 binding to human interleukin-23 receptor incubated for 2 hrs by competitive binding ELISA
Where a SMILES comes first, the peptide text is derived from it.
experimental-endpoint: IC50

Some entries whose results are on file:
CC(=O)N[C@@H](CS)C(=O)N[C@@H](C)C(=O)N[C@@H](CC(=O)O)C(=O)N[C@@H](Cc1c[nH]c2ccccc12)C(=O)N[C@H](C(=O)N[C@@H](CS)C(=O)N[C@@H](Cc1ccc(O)cc1)C(=O)N[C@@H](Cc1c[nH]c2ccccc12)C(=O)N[C@@H](CCCCN)C(=O)N[C@H](C(=O)N[C@@H](Cc1ccccc1)C(=O)NCC(=O)O)[C@@H](C)O)C(C)C    > 1000 nM
COc1ccc(C[C@H](NC(=O)[C@@H](NC(=O)[C@H](CCC(N)=O)NC(=O)[C@H](Cc2c[nH]c3ccccc23)NC(=O)[C@@H](NC(=O)[C@H](CCC(N)=O)NC(=O)[C@@H](NC(=O)CCCC(=O)O)C(C)(C)S)[C@@H](C)O)C(C)(C)S)C(=O)N[C@@H](Cc2ccc3ccccc3c2)C(=O)N[C@@](C)(CCCCN)C(=O)N[C@@H](CCCCNC(C)=O)C(=O)N[C@@H](CC(N)=O)C(=O)NCC(N)=O)cc1    25 to 100 nM
CC(=O)N[C@@H](CS)C(=O)N[C@@H](CCC(N)=O)C(=O)N[C@H](C(=O)N[C@@H](Cc1c[nH]c2ccccc12)C(=O)N[C@@H](CCC(N)=O)C(=O)N[C@@H](CS)C(=O)N[C@@H](Cc1ccc(O)cc1)C(=O)N[C@@H](Cc1c[nH]c2ccccc12)C(=O)N[C@@H](CCCNC(=N)N)C(=O)N[C@@H](CCC(=O)O)C(=O)N[C@@H](CC(N)=O)C(=O)NCC(=O)NCCOCC(=O)N[C@H](CCCCN)C(N)=O)[C@@H](C)O    < 500 nM
COc1ccc(C[C@H](NC(=O)[C@@H]2CSCC[C@H](NC(C)=O)C(=O)N[C@@H](CCC(N)=O)C(=O)N[C@@H]([C@@H](C)O)C(=O)N[C@@H](Cc3c[nH]c4ccccc34)C(=O)N[C@@H](CCC(N)=O)C(=O)N2)C(=O)N[C@@H](Cc2ccc3ccccc3c2)C(=O)N[C@@](C)(CCCN)C(=O)N[C@@H](CCCCNC(C)=O)C(=O)N[C@@H](CC(N)=O)C(=O)NCC(N)=O)cc1    10 to 25 nM
CC(=O)N[C@@H](CS)C(=O)N[C@@H](CCCNC(=N)N)C(=O)N[C@H](C(=O)N[C@@H](Cc1c[nH]c2ccccc12)C(=O)N[C@@H](CCC(N)=O)C(=O)N[C@@H](CS)C(N)=O)[C@@H](C)O (Ac-CRTWQC-NH2)    > 30000 nM

Please indicate recorded IC50 of CC(=O)N[C@@H](CS)C(=O)N[C@@H](CCCNC(=N)N)C(=O)N[C@H](C(=O)N[C@@H](Cc1c[nH]c2ccccc12)C(=O)N[C@@H](CCC(=O)O)C(=O)N[C@@H](CS)C(=O)N[C@@H](Cc1ccc(O)cc1)C(=O)N[C@@H](Cc1c[nH]c2ccccc12)C(=O)N[C@@H](Cc1cnc[nH]1)C(=O)N[C@@H](CCC(=O)O)C(=O)N[C@@H](CCC(N)=O)C(=O)N[C@@H](CO)C(N)=O)[C@@H](C)O (Ac-CRTWECYWHEQS-NH2) measured with Interleukin-23 receptor (Homo sapiens).
< 500 nM
